Data provenance: patent US20130344026A1

Listed here are molecules together with their documented IC50.
# Test system: PANC-1 cells
# ASSAY REMARKS: cell viability assay in PANC-1 cells (compound alone, + 100 ng/ml TNFa, + 300 ng/ml TRAIL)
# Type: cell-based
# COND: PANC-1 cells, + 300 ng/ml TRAIL; read-out: IC50 (uM) in cell viability assay in PANC-1 cells, Cmpnd + 300 ng/ml TRAIL
Please reply with the bare figure in µM and do not write the unit itself.

molecule="CN[C@@H](C)C(=O)N[C@@H](CCC(=O)Nc1ccc(C#Cc2ccc(NC(=O)CC[C@H](NC(=O)[C@H](C)NC)C(=O)N3CCC[C@H]3C(=O)N[C@@H]3CCCc4ccccc43)cc2)cc1)C(=O)N1CCC[C@H]1C(=O)N[C@@H]1CCCc2ccccc21 [Compound P3-98]" target_or_test_system="PANC-1 cells" value_unit=µM numeric_readout=0.012
molecule="CN[C@@H](C)C(=O)N[C@H](C(=O)N1C[C@@H](Oc2cccc(CCCCc3cccc(O[C@H]4C[C@@H](C(=O)N[C@@H]5CCCc6ccccc65)N(C(=O)[C@@H](NC(=O)[C@H](C)NC)C(C)(C)C)C4)c3)c2)C[C@H]1C(=O)N[C@@H]1CCCc2ccccc21)C(C)(C)C [Compound P3-104]" target_or_test_system="PANC-1 cells" value_unit=µM numeric_readout=0.042
molecule="CN[C@@H](C)C(=O)N[C@H](C(=O)N1C[C@@H](NC(=O)c2cc(C(=O)N[C@H]3C[C@@H](C(=O)N[C@H](C)c4ccccc4)N(C(=O)[C@@H](NC(=O)[C@H](C)NC)C(C)(C)C)C3)n(C)n2)C[C@H]1C(=O)N[C@H](C)c1ccccc1)C(C)(C)C [Compound P3-107]" target_or_test_system="PANC-1 cells" value_unit=µM numeric_readout=0.02
molecule="CN[C@@H](C)C(=O)N[C@H](C(=O)N1C[C@@H](NC(=O)CCCCCCCCC(=O)N[C@H]2C[C@@H](C(=O)N[C@H](C)c3ccccc3)N(C(=O)[C@@H](NC(=O)[C@H](C)NC)C(C)(C)C)C2)C[C@H]1C(=O)N[C@H](C)c1ccccc1)C(C)(C)C [Compound P3-93]" target_or_test_system="PANC-1 cells" value_unit=µM numeric_readout=0.043
molecule="CN[C@@H](C)C(=O)N[C@H](C(=O)N1C[C@@H](NC(=O)c2[nH]c(C(=O)N[C@H]3C[C@@H](C(=O)N[C@H](C)c4ccccc4)N(C(=O)[C@@H](NC(=O)[C@H](C)NC)C(C)(C)C)C3)c3c2OCCO3)C[C@H]1C(=O)N[C@H](C)c1ccccc1)C(C)(C)C [Compound P3-95]" target_or_test_system="PANC-1 cells" value_unit=µM numeric_readout=0.006

Param item = CN[C@@H](C)C(=O)N[C@H](C(=O)N1C[C@@H](NC(=O)c2ccc(C(=O)N[C@H]3C[C@@H](C(=O)N[C@@H]4CCCc5ccccc54)N(C(=O)[C@@H](NC(=O)[C@H](C)NC)C(C)(C)C)C3)nc2)C[C@H]1C(=O)N[C@@H]1CCCc2ccccc21)C(C)(C)C [Compound P3-94] ; retrieve measured IC50.
0.006

I'd like to know its IC50. The molecule in question is CN[C@@H](C)C(=O)N[C@H](C(=O)N1C[C@@H](NC(=O)c2cc(C(=O)N[C@H]3C[C@@H](C(=O)N[C@H](C)c4ccccc4)N(C(=O)[C@@H](NC(=O)[C@H](C)NC)[C@@H](C)OC)C3)[nH]n2)C[C@H]1C(=O)N[C@H](C)c1ccccc1)[C@@H](C)OC [Compound P3-110]
0.073

Item under review: CN[C@@H](CO)C(=O)N[C@H](C(=O)N1C[C@@H](NC(=O)c2cccc(C(=O)N[C@H]3C[C@@H](C(=O)N[C@H](C)c4ccccc4)N(C(=O)[C@@H](NC(=O)[C@H](CO)NC)C(C)(C)C)C3)c2)C[C@H]1C(=O)N[C@H](C)c1ccccc1)C(C)(C)C [Compound P3-90] . Reported IC50?
0.021

Entry under review: CN[C@@H](C)C(=O)N[C@H](C(=O)N1C[C@@H](NC(=O)C2CCCC(C(=O)N[C@H]3C[C@@H](C(=O)N[C@H](C)c4ccccc4)N(C(=O)[C@@H](NC(=O)[C@H](C)NC)C(C)(C)C)C3)C2)C[C@H]1C(=O)N[C@H](C)c1ccccc1)C(C)(C)C (stereo partly shown) [Compound P3-96] . Reported IC50?
0.006

IC50 lookup needed for CN[C@@H](C)C(=O)N[C@H](C(=O)N1C[C@@H](NC(=O)c2nc[nH]c2C(=O)N[C@H]2C[C@@H](C(=O)N[C@H](C)c3ccccc3)N(C(=O)[C@@H](NC(=O)[C@H](C)NC)C(C)(C)C)C2)C[C@H]1C(=O)N[C@H](C)c1ccccc1)C(C)(C)C [Compound P3-92] , thanks.
0.072

What value of measured IC50 is listed for CN[C@@H](C)C(=O)N[C@H](C(=O)N1C[C@@H](N(C)C(=O)c2cc(C(=O)N(C)[C@H]3C[C@@H](C(=O)N[C@H](C)c4ccccc4)N(C(=O)[C@@H](NC(=O)[C@H](C)NC)C(C)(C)C)C3)[nH]n2)C[C@H]1C(=O)N[C@H](C)c1ccccc1)C(C)(C)C [Compound P3-109] ?
0.049

Recorded IC50 of CN[C@@H](C)C(=O)N[C@H](C(=O)N1C[C@@H](NC(=O)c2cc(C(=O)N[C@H]3C[C@@H](C(=O)N[C@H](C)c4ccc(Cl)cc4)N(C(=O)[C@@H](NC(=O)[C@H](C)NC)C(C)(C)C)C3)[nH]n2)C[C@H]1C(=O)N[C@H](C)c1ccc(Cl)cc1)C(C)(C)C [Compound P3-108] , please.
0.036

Report IC50 for CN[C@@H](C)C(=O)N[C@H](C(=O)N1C[C@@H](NC(=O)C23CC4CC(C2)CC(C(=O)N[C@H]2C[C@@H](C(=O)N[C@H](C)c5ccccc5)N(C(=O)[C@@H](NC(=O)[C@H](C)NC)C(C)(C)C)C2)(C4)C3)C[C@H]1C(=O)N[C@H](C)c1ccccc1)C(C)(C)C [Compound P3-101] please.
0.001

For CN[C@@H](C)C(=O)N[C@H](C(=O)N1C[C@@H](NC(=O)c2cccc(C(=O)N[C@H]3C[C@@H](C(=O)N[C@H](CO)c4ccccc4)N(C(=O)[C@@H](NC(=O)[C@H](C)NC)C(C)(C)C)C3)c2)C[C@H]1C(=O)N[C@H](CO)c1ccccc1)C(C)(C)C [Compound P3-99] , what is its reported IC50?
0.054

Quick one: IC50 of C[C@H](N)C(=O)N[C@H](C(=O)N1C[C@@H](NC(=O)c2cccc(C(=O)N[C@H]3C[C@@H](C(=O)N[C@H]4CCCc5ccccc54)N(C(=O)[C@@H](NC(=O)[C@H](C)N)C(C)(C)C)C3)c2)C[C@H]1C(=O)N[C@H]1CCCc2ccccc21)C(C)(C)C [Compound P3-106] ?
0.115

Request the reported IC50 associated with CN[C@@H](C)C(=O)N[C@H](C(=O)N1C[C@@H](Oc2cccc(C#CC#Cc3cccc(O[C@H]4C[C@@H](C(=O)N[C@@H]5CCCc6ccccc65)N(C(=O)[C@@H](NC(=O)[C@H](C)NC)C(C)(C)C)C4)c3)c2)C[C@H]1C(=O)N[C@@H]1CCCc2ccccc21)C(C)(C)C [Compound P3-103]
0.037

====

Entries annotated with measured IC50
# System: PANC-1 cells
# ASSAY REMARKS: cell viability assay in PANC-1 cells (compound alone, + 100 ng/ml TNFa, + 300 ng/ml TRAIL)
# Assay type: cell-based
# COND: with 100 ng/ml TNFa; Tables 15-18; read-out: IC50 (uM) in cell viability assay in PANC-1 cells: Cmpnd + 100 ng/ml TNFa

compound="CN[C@@H](C)C(=O)NC(CCC(=O)Nc1ccc(CCc2ccc(NC(=O)CCC(NC(=O)[C@H](C)NC)C(=O)N3CCC[C@H]3C(=O)N[C@@H]3CCCc4ccccc43)cc2)cc1)C(=O)N1CCC[C@H]1C(=O)NC1CCCc2ccccc21 (stereo partly drawn) [Compound P2-45]" result="0.002 µM"
compound="CN[C@@H](C)C(=O)N[C@H](C(=O)N1C[C@@H](NC(=O)c2ccc3cc(C(=O)NCC[C@H](NC(=O)[C@@H](NC(=O)[C@H](CO)NC)C4CCCCC4)C(=O)N[C@H](C)C(C)C)ccc3c2)C[C@H]1C(=O)N[C@@H]1CCCc2ccccc21)C(C)(C)C [Compound H-10]" result="0.001 µM"

Query the reported IC50 for PANC-1 cells; item: CN[C@@H](C)C(=O)N[C@@H](CC(=O)NCC=CC=CCNC(=O)C[C@H](NC(=O)[C@H](C)NC)C(=O)N1CCC[C@H]1C(=O)N[C@@H]1CCCc2ccccc21)C(=O)N1CCC[C@H]1C(=O)N[C@@H]1CCCc2ccccc21 [Compound P2-42]
0.091 µM
